- System: S. aureus
- measurement.description: MIC by broth microdilution, S. aureus
- Assay type: cell-based, Staphylococcus aureus
- reported.conditions: cation adjusted Mueller Hinton broth, 35° C. 20 hours
// values below are reported MIC S. aureus
Quick reminder: number only, in µg/mL, skip the unit.

Known results for molecules:
molecule	measured.property	unit.string	assay.result
COC1C=COC2(C)Oc3c(C)c(O)c4c(c3C2=O)C2=NC3(NC2=C(NC(=O)C(C)=CC=CC(C)C(O)C(C)C(O)C(C)C(OC(C)=O)C1C)C4=O)C1CC3CN(C)C1 (mixture of isomers)	MIC S. aureus	µg/mL	0.125
COC1C=COC2(C)Oc3c(C)c(O)c4c(c3C2=O)C2=NC3(CCC5CCC(C3)N5C)NC2=C(NC(=O)C(C)=CC=CC(C)C(O)C(C)C(O)C(C)C(OC(C)=O)C1C)C4=O (mixture of isomers)	MIC S. aureus	µg/mL	0.03
CO[C@H]1/C=C/O[C@@]2(C)Oc3c(C)c(O)c4c(c3C2=O)C2=NC3(CC5CCC(C3)N5C(C)C)NC2=C(NC(=O)/C(C)=C\C=C\[C@H](C)[C@H](O)[C@@H](C)[C@@H](O)[C@@H](C)[C@H](OC(C)=O)[C@@H]1C)C4=O (single isomer, unassigned) [Compound 14A]	MIC S. aureus	µg/mL	0.016
COC1C=COC2(C)Oc3c(C)c(O)c4c(c3C2=O)C2=NC3(NC2=C(NC(=O)C(C)=CC=CC(C)C(O)C(C)C(O)C(C)C(OC(C)=O)C1C)C4=O)C1CCC3CN(C)C1 (mixture of isomers)	MIC S. aureus	µg/mL	0.016
CCCN1C2CCC1CC1(C2)N=C2C(=C3NC(=O)/C(C)=C\C=C\[C@H](C)[C@H](O)[C@@H](C)[C@@H](O)[C@@H](C)[C@H](OC(C)=O)[C@H](C)[C@@H](OC)/C=C/O[C@@]4(C)Oc5c(C)c(O)c(c2c5C4=O)C3=O)N1 (single isomer, unassigned) [Compound 20B]	MIC S. aureus	µg/mL	0.004
CO[C@H]1/C=C/O[C@@]2(C)Oc3c(C)c(O)c4c(c3C2=O)C2=NC3(CC5CCC(C3)N5C(C)C)NC2=C(NC(=O)/C(C)=C\C=C\[C@H](C)[C@H](O)[C@@H](C)[C@@H](O)[C@@H](C)[C@H](OC(C)=O)[C@@H]1C)C4=O (single isomer, unassigned) [Compound 14B]	MIC S. aureus	µg/mL	0.008
CCCN1C2CCC1CC1(C2)N=C2C(=C3NC(=O)/C(C)=C\C=C\[C@H](C)[C@H](O)[C@@H](C)[C@@H](O)[C@@H](C)[C@H](OC(C)=O)[C@H](C)[C@@H](OC)/C=C/O[C@@]4(C)Oc5c(C)c(O)c(c2c5C4=O)C3=O)N1 (single isomer, unassigned) [Compound 20A]	MIC S. aureus	µg/mL	0.008
CO[C@H]1/C=C/O[C@@]2(C)Oc3c(C)c(O)c4c(c3C2=O)C2=NC3(CC5CCC(C3)N5C)NC2=C(NC(=O)/C(C)=C\C=C\[C@H](C)[C@H](O)[C@@H](C)[C@@H](O)[C@@H](C)[C@H](OC(C)=O)[C@@H]1C)C4=O (single isomer, unassigned) [Compound 13B]	MIC S. aureus	µg/mL	0.016
COC1C=COC2(C)Oc3c(C)c(O)c4c(c3C2=O)C2=NC3(NC2=C(NC(=O)C(C)=CC=CC(C)C(O)C(C)C(O)C(C)C(OC(C)=O)C1C)C4=O)C1CCCC3CNC1 (mixture of isomers)	MIC S. aureus	µg/mL	0.004
CO[C@H]1/C=C/O[C@@]2(C)Oc3c(C)c(O)c4c(c3C2=O)C2=NC3(NC2=C(NC(=O)/C(C)=C\C=C\[C@H](C)[C@H](O)[C@@H](C)[C@@H](O)[C@@H](C)[C@H](OC(C)=O)[C@@H]1C)C4=O)C1CNCC3CNC1 (stereo partly drawn)	MIC S. aureus	µg/mL	0.008

# MIC S. aureus lookup, item CO[C@H]1/C=C/O[C@@]2(C)Oc3c(C)c(O)c4c(c3C2=O)C2=NC3(CC5CCC(C3)N5)NC2=C(NC(=O)/C(C)=C\C=C\[C@H](C)[C@H](O)[C@@H](C)[C@@H](O)[C@@H](C)[C@H](OC(C)=O)[C@@H]1C)C4=O (single isomer, unassigned) [Compound 12A]
0.06

Which MIC S. aureus is reported for this molecule? COC1C=COC2(C)Oc3c(C)c(O)c4c(c3C2=O)C2=NC3(CC5CCC(C3)N5C3CCCC3)NC2=C(NC(=O)C(C)=CC=CC(C)C(O)C(C)C(O)C(C)C(OC(C)=O)C1C)C4=O (mixture of isomers)
0.03

Reported MIC S. aureus for CCCN1CC2CN(CCC)CC(C1)C21N=C2C(=C3NC(=O)/C(C)=C\C=C\[C@H](C)[C@H](O)[C@@H](C)[C@@H](O)[C@@H](C)[C@H](OC(C)=O)[C@H](C)[C@@H](OC)/C=C/O[C@@]4(C)Oc5c(C)c(O)c(c2c5C4=O)C3=O)N1 (stereo partly drawn) : what is it?
0.016

Any idea what MIC S. aureus was measured for CO[C@H]1/C=C/O[C@@]2(C)Oc3c(C)c(O)c4c(c3C2=O)C2=NC3(CCCN(C)CC3)NC2=C(NC(=O)/C(C)=C\C=C\[C@H](C)[C@H](O)[C@@H](C)[C@@H](O)[C@@H](C)[C@H](OC(C)=O)[C@@H]1C)C4=O (single isomer, unassigned) [Compound 7B] ?
0.008

Give its MIC S. aureus value. Item: CO[C@H]1/C=C/O[C@@]2(C)Oc3c(C)c(O)c4c(c3C2=O)C2=NC3(NC2=C(NC(=O)/C(C)=C\C=C\[C@H](C)[C@H](O)[C@@H](C)[C@@H](O)[C@@H](C)[C@H](OC(C)=O)[C@@H]1C)C4=O)C1CC2CC3CN(C2)C1 (stereo partly drawn)
0.008
